QUANTITY NAME: melting point

Query: Name the recorded melting point of the item O=C(Nc1cccc(F)c1)C1CSCN1 (configuration not stated) in your answer.
Result: 222 to 224 °C

Query: Retrieve melting point measured for CC(C)(C)c1cc(NC(=O)CCl)on1 and print it.
Result: 95 to 97 °C

Query: Tell me its melting point given CS(=O)(=O)C(Br)C(=O)c1ccccc1 (configuration not stated) as the entry.
Result: 90 to 92 °C

Query: Note down melting point recorded for CCC(c1ccccc1)c1nnc(N)o1 (configuration not stated)
Result: 197 to 199 °C

Query: Specify measured melting point for O=C(O)CCN1C(=O)NC2(CCCCC2)C1=O .
Result: 100 to 102 °C

Query: Provide melting point value for the following molecule: CC(=O)CCc1ccc(OCCC(=O)O)cc1
Result: 102 to 104 °C

Query: Check the records and state melting point for CCOc1cc(CC#N)cc(Cl)c1OC(F)F
Result: 79 to 81 °C

----------
Would you mind telling me the reported melting point of each entry?

Query: Could you please provide reported melting point for Cn1cnnc1C1CCNCC1 ? Thanks!
Result: 181 to 183 °C

Query: Using known records, supply melting point for Oc1[nH]nc2c1CC(c1ccccc1)CC2 (stereo not drawn)
Result: 269 to 271 °C

Query: Write down melting point measured for item Cc1sc2nc(CCl)[nH]c(=O)c2c1-c1ccccc1
Result: 259 to 261 °C

Query: Please list melting point recorded for the molecule N#Cc1cccc(-n2cccn2)n1
Result: 116 to 118 °C

Query: Using the record for O=C(Nc1cc(Cl)ccc1Cl)C1CCCCN1 (stereo not drawn) , state its measured melting point.
Result: 127 to 129 °C

Query: Read off the recorded melting point for Cc1ccc(OCCCC(=O)O)cc1C
Result: 90 to 92 °C

Query: Return the recorded melting point value; entry: Cc1oc2nc[nH]c(=O)c2c1C(=O)O
Result: 149 to 151 °C

Query: Tell us which melting point value is on record for COc1ccc(CNc2ccncn2)cc1OC
Result: 124 to 126 °C

Query: # return recorded melting point for entry CC1(c2cccs2)NC(=O)NC1=O (stereo not drawn)
Result: 137 to 139 °C

Query: Look up and state reported melting point for CC(C)(C)OC(=O)N1CCCc2ccc(N)cc21
Result: 90 to 92 °C

Query: Give the reported melting point for this molecule. Fc1ccc(COc2ccc(CCl)cc2)cc1
Result: 57 to 59 °C

Query: Answer with the recorded melting point for the molecule listed here: O=C(Nc1ccccc1C(=O)O)c1ccc(Oc2ccccc2)cc1
Result: 189 to 191 °C

Query: Specify measured melting point for CCOC(=O)c1c(-c2ccc(C)o2)csc1N .
Result: 93 to 95 °C

----------
QUANTITY NAME: melting point

Query: Item OCc1nc2ccccc2o1 : provide melting point
Result: 59 to 61 °C

Query: Name the recorded melting point of the compound listed here: Cc1nc(COc2cccc(C(=O)O)c2)cs1
Result: 153 to 155 °C

Query: Using known records, supply melting point for O=C1CC2(CCCCC2)Oc2cc(O)ccc21
Result: 169 to 171 °C

Query: Supply measured melting point of Cc1c(N)cccc1N1CCCC1=O in your reply.
Result: 170 to 172 °C

Query: Given the compound O=C(O)c1ccccc1OCc1cccs1 , write its reported melting point.
Result: 87 to 89 °C

Query: Assign melting point to the following record: CC(C)Oc1cccc(C(O)CN)c1 (configuration not stated)
Result: 52 to 54 °C

Query: State its melting point for this compound: O=C(O)C1(c2cccc(C(F)(F)F)c2)CCCCC1
Result: 144 to 146 °C

----------
Please provide measured melting point for the entries that follow.

Query: Provide measured melting point value, entry: OC1CCN(c2ccc(Cl)nn2)CC1
Result: 109 to 111 °C

Query: Consider the molecule Cc1ccc(S(=O)(=O)OCC2CCCO2)cc1 (stereo not drawn) and give its recorded melting point.
Result: 43 to 45 °C

Query: Return melting point (reported value) for this molecule: N#CCCN1CCS1(=O)=O
Result: 52 to 54 °C

Query: State, in one line, measured melting point of NC(=O)CCC1CCCCC1
Result: 116 to 118 °C

Query: Tell me measured melting point for O=C(O)c1cn(-c2ccccc2)nc1-c1cccc2ccccc12 please.
Result: 186 to 188 °C

Query: Given the molecule O=C(O)c1ccccc1C(=O)Nc1ccc(-c2ccccc2)cc1 , write its reported melting point.
Result: 292 to 294 °C

Query: Answer with reported melting point of Cc1cc(C(=O)N2CCOCC2)ccc1N
Result: 101 to 103 °C

Query: Using the record for CC(=O)c1cc(C#N)c(SCC(=O)O)nc1C , state its measured melting point.
Result: 187 to 189 °C

Query: For the molecule C=CCNS(=O)(=O)c1cc(C(=O)O)ccc1F , give its measured melting point value.
Result: 164 to 166 °C

Query: Return melting point (reported value) for this molecule: NC(=S)/C(=C/c1ccccc1O)C(=O)O
Result: 243 to 245 °C

Query: Provide measured melting point value, entry: Nc1ccn(-c2ccccc2)n1
Result: 77 to 79 °C

Query: Given the molecule Nc1cccc(-c2cn[nH]c2)c1 , write its reported melting point.
Result: 189 to 191 °C

Query: For the molecule CCn1c(=O)[nH]c2ccccc21 , give its measured melting point value.
Result: 120 to 124 °C

----------
Assign melting point to each entry below.

Query: Assign melting point to the following record: O=C(O)CCn1c(=O)oc2cc(Cl)ccc21
Result: 160 to 162 °C

Query: Kindly indicate its recorded melting point. Item: NC(=NO)C1CN(Cc2ccccc2)CCO1 (stereo unspecified)
Result: 116 to 118 °C

Query: Specify reported melting point for the compound shown: Cc1c(C(=O)O)nnn1-c1cccc(Cl)c1
Result: 179 to 181 °C

Query: Retrieve melting point measured for NS(=O)(=O)c1ccc(CNC(=O)OCC(F)(F)F)cc1 and print it.
Result: 150 to 152 °C

Query: Provide measured melting point value, entry: CN1CCC2(CC1)NC(=O)NC2=O
Result: 283 to 285 °C

Query: In one line, give reported melting point of the entry COC(=O)c1cc(=O)c2ccccc2[nH]1 .
Result: 223 to 225 °C

Query: Tell me melting point reported for O=c1[nH]c2ccc(NCc3ccc(F)cc3)cc2[nH]1
Result: 251 to 253 °C

Query: Tell me measured melting point for O=C(O)c1nc(Cl)ccc1F please.
Result: 149 to 151 °C

Query: Identify measured melting point associated with CC(=O)c1nnn(-c2cccc(Br)c2)c1C
Result: 74 to 76 °C

Query: Identify measured melting point associated with O=C(O)c1cc(Br)c2c(c1)OCO2
Result: 251 to 253 °C

Query: Annotate the compound O=C(O)CCc1nnc(-c2cc(F)ccc2Br)o1 with its measured melting point.
Result: 153 to 155 °C

Query: Quickly give me recorded melting point for COCCNC(=O)c1ccc(Cl)nc1
Result: 112 to 114 °C

Query: Please report the measured melting point for N#Cc1cccc(OCc2cccc(C(=O)O)c2)c1
Result: 179 to 181 °C

Query: Using known records, supply melting point for CC(C)(C)OC(=O)NC1C2CCC(C2)C1C(=O)O (stereo unspecified)
Result: 140 to 142 °C

Query: Please look at this compound and report its melting point: Nc1ccc(NS(=O)(=O)c2ccc3c(c2)OCCO3)cc1
Result: 176 to 178 °C

Query: Entry CCOC(=O)c1nc(-c2ccccc2)oc1N needs its melting point filled in; supply it.
Result: 181 to 183 °C

Query: Consider the compound Cc1cc(Br)cc2c(=O)cc[nH]c12 and give its recorded melting point.
Result: 249 to 251 °C

Query: Supply reported melting point belonging to this compound: COc1ccc(CNC(=O)n2ccnc2)cc1OC
Result: 136 to 138 °C

Query: Retrieve melting point measured for Nc1ccccc1Oc1ccccc1N and print it.
Result: 61 to 64 °C

Query: For the compound Cc1nc(O)c2c(n1)CCCC2 , give its reported melting point.
Result: 206 to 208 °C

Query: // fetch melting point given entry Cc1c(N)cccc1-c1nc2cc(F)ccc2n1C1CC1
Result: 131 to 133 °C

Query: Given the compound Cc1cc2ccn(C)c2c(=O)[nH]1 , write its reported melting point.
Result: 189 to 191 °C

Query: Please give the documented melting point of CC(C)C(=O)Nc1ccc(CNC(=O)n2ccnc2)cc1
Result: 203 to 205 °C

Query: Answer with reported melting point of CC(C)CNC(=O)C(C)Cl (stereo unspecified)
Result: 37 to 39 °C

Query: Please give measured melting point of the following entry: N#Cc1c(CCCN)n[nH]c1N
Result: 169 to 171 °C

Query: Fill in melting point for record CC1=NN(c2ccc(Cl)c(Cl)c2)C(=O)C1
Result: 158 to 160 °C

Query: Return reported melting point. Input compound: COC(=O)COc1ccc([N+](=O)[O-])c2ccccc12
Result: 141 to 143 °C

Query: Return the recorded melting point value; entry: N#CC1(N2CCN(Cc3ccccc3)CC2)CCOCC1
Result: 105 to 107 °C

Query: In one line, give reported melting point of the entry Nc1cncc(Br)c1 .
Result: 65 to 69 °C

Query: Note melting point for the compound shown: Nn1c(S)nnc1-c1ccncc1
Result: 250 to 254 °C

Query: Specify measured melting point for COCCn1c(C(=O)O)cc2ccccc21 .
Result: 139 to 141 °C

Query: Name the recorded melting point of the compound listed here: C1=CNc2cccc(=C3N=c4ccncc4=N3)c2=C1
Result: 316 to 318 °C

Query: Answer with reported melting point of CC(C)CN(C(=O)CCl)C1CCS(=O)(=O)C1 (stereo unspecified)
Result: 150 to 155 °C

Query: Identify measured melting point associated with CC(=O)N(c1ccc(C(F)(F)F)cc1)c1nc(C=O)cs1
Result: 138 to 140 °C

Query: Give me measured melting point, please, for this compound: CNc1cnc(Cl)cc1C(=O)O
Result: 279 to 281 °C

Query: Identify measured melting point corresponding to Cc1[nH]n(C)c(=N)c1C
Result: 109 to 111 °C

Query: Quick one: give measured melting point for N#Cc1ccc(S(N)(=O)=O)cc1Cl
Result: 157 to 159 °C

Query: Could you please provide reported melting point for O=C(c1ccc(Cl)cc1)c1ccccn1 ? Thanks!
Result: 63 to 65 °C

Query: Quote melting point reported for O=C(O)CNC(=O)C=Cc1cccnc1 please.
Result: 264 to 266 °C

Query: Read the entry Cc1nnc(-c2cccc(N)c2)n1C and write its reported melting point.
Result: 189 to 191 °C

Query: Give recorded melting point. CC1CCCC(O)(CN)C1 (stereo unspecified)
Result: 59 to 61 °C

Query: Name the recorded melting point of the compound listed here: O=C(O)c1cc(N2CCCC2=O)ccc1Cl
Result: 159 to 161 °C

Query: Query melting point for O=C(c1c[nH]c2ccccc12)C(Cl)c1ccccc1 (stereo unspecified)
Result: 124 to 126 °C

Query: Answer with the recorded melting point for the compound listed here: O=C(O)c1ccc(-n2cccn2)c(F)c1
Result: 235 to 237 °C

Query: Retrieve melting point measured for Cc1ccc2c(C3CCNCC3)c[nH]c2c1 and print it.
Result: 176 to 178 °C

Query: For CCCc1c(C(=O)O)[nH]c(C)c1C(C)=O , write its melting point.
Result: 214 to 216 °C

Query: Please look at this compound and report its melting point: CCOc1ccc(C(=O)N(C)C)cc1N
Result: 127 to 129 °C

Query: Specify measured melting point for CC1CCc2c(sc3nc(C(C)Cl)[nH]c(=O)c23)C1 (stereo unspecified) .
Result: 248 to 250 °C

Query: Please list melting point recorded for the compound CCOC(=O)N1CCNC(=O)CC1
Result: 103 to 105 °C

Query: Please report melting point for the following compound: CN(C)N=Cc1cnn(C)c1
Result: 70 to 72 °C

Query: Name the recorded melting point of the item CC(Cl)C(=O)Nc1cccc2ccccc12 (stereo unspecified) in your answer.
Result: 146 to 148 °C

Query: Look up melting point of O=C(O)CCN1C(=O)NC2(CCCC2)C1=O and report it.
Result: 167 to 169 °C

Query: Answer with the recorded melting point for the compound listed here: CC(C)CCOc1ccc(C(=O)NN)cc1
Result: 108 to 110 °C

Query: Annotate the compound NS(=O)(=O)c1ccc(F)c(C(=O)O)c1F with its measured melting point.
Result: 139 to 141 °C

Query: Consider the compound CS(=O)(=O)N1CCCc2cc(C(=O)O)ccc21 and give its recorded melting point.
Result: 218 to 220 °C

Query: Give recorded melting point. O=C(O)CSCc1ccc(Cl)s1
Result: 66 to 68 °C
